meta.source: paper PMC4081100

Molecular target: GST-NAP(1-166) (Arabidopsis thaliana, UniProt O49255 1-166)
Sequence: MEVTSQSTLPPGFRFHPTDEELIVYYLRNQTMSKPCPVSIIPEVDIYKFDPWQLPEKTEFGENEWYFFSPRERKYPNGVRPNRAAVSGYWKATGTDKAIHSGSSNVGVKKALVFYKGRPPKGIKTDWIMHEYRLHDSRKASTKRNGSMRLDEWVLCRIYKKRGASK
Experiment: universal protein binding microarray (PBM); high values mean tight binding
Settings: protein: recombinant; tags: GST; chain copies: 2; dsDNA, one strand shown
Exercise: for every item that follows, state its recorded binding signal.

| sequence.text | system.name | value.reported |
| --- | --- | --- |
| ACGTAATA | GST-NAP(1-166) (Arabidopsis thaliana, UniProt O49255 1-166) | 0.346 E-score |
| CTAAGTAA | GST-NAP(1-166) (Arabidopsis thaliana, UniProt O49255 1-166) | 0.188 E-score |
| ACGTGTAC | GST-NAP(1-166) (Arabidopsis thaliana, UniProt O49255 1-166) | 0.278 E-score |
| AAGTTACC | GST-NAP(1-166) (Arabidopsis thaliana, UniProt O49255 1-166) | 0.114 E-score |

Each sequence below has a reported value. Please supply its binding signal.
1. ACACGACA
2. AACACGGA
3. ACGGAAGC
4. ATGGGTCA
5. TGCGTACA

Reply:
1: 0.36 E-score; 2: 0.268 E-score; 3: 0.236 E-score; 4: 0.0537 E-score; 5: 0.289 E-score

Each sequence below has a reported value. Please supply its binding signal.
1. CGCACGCA
2. GTTGACAA

Reply:
0.291 E-score
0.116 E-score

* * *

Biological target: GST-VND7 NAC domain (Arabidopsis thaliana, UniProt Q9C8W9 9-158)
Sequence: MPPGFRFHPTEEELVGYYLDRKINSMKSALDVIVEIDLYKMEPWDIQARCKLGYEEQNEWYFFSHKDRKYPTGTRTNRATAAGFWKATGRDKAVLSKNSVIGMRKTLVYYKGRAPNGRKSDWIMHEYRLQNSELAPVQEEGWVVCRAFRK
Test: universal protein binding microarray (PBM); transcription factors of Arabidopsis thaliana; high values mean tight binding
Conditions: protein: recombinant; tags: GST; chain copies: 2; dsDNA, one strand shown
Exercise: for every item that follows, state its recorded binding signal.
Answers are plain numbers, in E-score.

| sequence.text | binding signal (E-score) |
| --- | --- |
| AGACACGC | 0.165 |
| GACGTAAC | 0.296 |
| CACGTTAG | 0.0853 |

Each sequence below has a reported value. Please supply its binding signal.
1. AACACGGA
2. AACGTAAT
3. TACGTAAA
4. AGGAAAGC

Reply:
1: 0.362; 2: 0.274; 3: 0.43; 4: 0.177

Each sequence below has a reported value. Please supply its binding signal.
1. AGTCAAAA
2. AGGAAACT
3. AATACGCA
4. ACACGTTA

Reply:
[0.0632, 0.131, 0.259, 0.237]

Each sequence below has a reported value. Please supply its binding signal.
1. ACGGAAGC
2. AGCGTCAA
3. CTTACGTA
4. ACACGGAA

Reply:
[0.266, 0.0921, 0.433, 0.479]

Each sequence below has a reported value. Please supply its binding signal.
1. ACCTTTCC
2. ATACACGC
3. TACACGTA
4. GCAAGCAA
5. TGCCGTAA
6. ATTACGTA

Reply:
0.0596
0.0693
0.406
0.216
0.449
0.458
